Molecular target: Concanavalin-A (Canavalia ensiformis) (UniProt P02866)
Sequence (P02866 whole entry, looked up): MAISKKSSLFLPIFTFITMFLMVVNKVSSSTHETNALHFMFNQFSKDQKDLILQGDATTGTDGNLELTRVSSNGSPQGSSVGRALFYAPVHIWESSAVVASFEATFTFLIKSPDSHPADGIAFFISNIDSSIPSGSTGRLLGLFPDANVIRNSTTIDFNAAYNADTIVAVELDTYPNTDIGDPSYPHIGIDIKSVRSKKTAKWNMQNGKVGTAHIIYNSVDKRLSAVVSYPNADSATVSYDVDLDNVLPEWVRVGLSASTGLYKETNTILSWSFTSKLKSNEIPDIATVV
Assay: compounds binding concanavalin A lectin – biochemical, small-molecule microarray, Alexa647 label, 635 nm, artefact control for SMM control protein annotation, primary screen (AID 1127);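 note: z combines 667 nm emission intensity with signal-to-noise across three replicate slides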
Settings: ConA-A647 binding fluorescence, higher = more signal
We'd kindly ask you to apply these composite z-score classes: bucket 1 (below 0.1), bucket 2 (0.1 to below 1), bucket 3 (1 or more)

1) COC(=O)[C@@]1(Cc2ccc(OC)cc2)[C@H]2c3cc(C(=O)N(C)C)n(CCF)c3C[C@H]2CN1C(=O)c1ccccc1 :: bucket 3
2) COCCCNC(=O)[C@@]1(C)c2ccccc2C(=O)N(c2ccc(C)cn2)[C@H]1c1ccc(CO)cc1 :: bucket 1
3) CN(C)CCCNC(=O)[C@@]1(Cc2ccccc2I)c2ccccc2C(=O)N(Cc2ccccc2Cl)[C@H]1c1ccc(CO)cc1 :: bucket 3
4) COC(=O)[C@@]1(Cc2ccccc2)[C@H]2c3cc(C(=O)N(C)C)n(Cc4ccc(O)c(OC)c4)c3C[C@H]2CN1C(=O)c1ccccc1 :: bucket 3
5) C[C@H]1ON(c2ccccc2)[C@@H](c2ccccc2)[C@@H]1C(=O)N1C(=O)OC[C@@H]1c1ccccc1 :: bucket 1
6) COC(=O)[C@@]1(Cc2ccc(F)cc2)[C@H]2c3cc(C(=O)N4CCCC4)n(Cc4ccccc4)c3C[C@H]2CN1C(=O)c1ccccc1 :: bucket 2
7) COCCCNC(=O)[C@]1(CCS(=O)(=O)c2ccccc2)N=C(c2ccc(OCCCO)cc2)O[C@@H]1c1ccccc1 :: bucket 3
8) COc1ccc([Si](C)(C)[C@@H]2[C@@H](CCO)O[C@]3(C(=O)N(Cc4ccccc4)c4ccc(N5C(=O)COc6ccccc65)cc43)[C@H]2C)cc1 :: bucket 2
9) CCCC=C(CCC)[C@@H](NS(=O)(=O)c1cccc2cccnc12)c1ccc(C(=O)OC)cc1 :: bucket 2
10) COCCOC(=O)N1C(=O)[C@@]2(c3ccccc31)[C@H](c1ccccc1OCCO)N1[C@H](c3ccccc3)[C@H](c3ccccc3)OC(=O)[C@H]1[C@@H]2C(=O)N1CCc2cc(OC)c(OC)cc2C1 :: bucket 3
11) C=CCC(OC(C)=O)[C@@H]1[C@@H](N(Cc2ccc(-c3cccc(C(F)(F)F)c3)o2)C(=O)c2cccc3ccccc23)c2cc(OCCCO)ccc2N1C(=O)c1ccc(-c2ccccc2)cc1 (some centres undefined) :: bucket 1
12) O=C1N(Cc2ccccc2)c2ccccc2[C@H]2OC(c3ccc(OCCCO)cc3)=N[C@@]12CCS(=O)(=O)c1ccccc1 :: bucket 2
13) CCC[C@@H]1C[C@@]1(CCC)[C@@H](NC(=O)c1cccs1)c1ccc(Cl)cc1 :: bucket 1
14) Cc1cc(C)c(C(O)C2C=CC3C(=O)N(c4ccccc4)C(=O)C3N2Nc2ccc([N+](=O)[O-])cc2)c(C)c1 (centres undefined) :: bucket 3
15) CN(C)CCCCCCNC(=O)[C@@H]1C[C@@H]2C(=O)NCC(=O)N2[C@@H]1c1ccc(O)cc1 :: bucket 3
16) C=CCNC(=O)[C@H]1[C@@H]2C(=O)O[C@@H](c3ccccc3)[C@@H](c3ccccc3)N2[C@@H](c2ccc(OCCO)cc2)[C@]12C(=O)N(C(=O)OCCOC)c1ccc(C#CC3=CCCCC3)cc12 :: bucket 3
17) C[C@@]1([C@@H](NC(=O)c2cccs2)c2ccc(-c3ccccc3)cc2)C[C@H]1C1CCCCC1 :: bucket 1
18) COCCCNC(=O)[C@@]1(Cc2ccccc2I)c2ccccc2C(=O)N(Cc2ccccc2Cl)[C@H]1c1ccc(CO)cc1 :: bucket 2
19) O=C(O)[C@]1(CCS(=O)(=O)c2ccccc2)N=C(c2ccc(OCCCO)cc2)O[C@@H]1c1ccccc1 :: bucket 1
20) COCCOC(=O)N1C(=O)[C@@]2(c3cc(C#CC4(O)CCCCCC4)ccc31)[C@H](C(=O)N1CCc3cc(OC)c(OC)cc3C1)[C@H]1C(=O)O[C@H](c3ccccc3)[C@H](c3ccccc3)N1[C@@H]2c1ccccc1OCCO :: bucket 3
21) N#Cc1ccc(NN2C(C(O)c3ccccc3)C=CC3C(=O)N(c4ccccc4)C(=O)C32)cc1 (centres undefined) :: bucket 1
22) CCCC=C(CCC)[C@@H](NS(=O)(=O)CC)c1ccccc1 :: bucket 3
23) COc1ccccc1CN1C(=O)c2ccccc2[C@@]2(Cc3ccccc3N(C3CC3)C2=O)[C@@H]1c1ccc(CO)cc1 :: bucket 2
24) CC(C)NC(=O)[C@@H]1c2ccccc2C(=O)N(Cc2cc(C(F)(F)F)cc(C(F)(F)F)c2)[C@H]1c1ccc(CO)cc1 :: bucket 3
25) O=C1N(CCS(=O)(=O)c2ccccc2)Cc2ccccc2C[C@@]12COC(c1ccc(OCCCO)cc1)=N2 :: bucket 3
26) C=C(CCCC)/C(=C/C[C@@H](OC(=O)c1ccncc1)c1ccccc1OCCO)c1cc(C(=O)OC)ccc1OC :: bucket 1
27) C=CC[C@@]1(C(=O)NCC(O)CO)N=C(c2ccc(OCCCO)cc2)O[C@@H]1c1ccccc1 (some centres undefined) :: bucket 1
28) CCCC[C@H]1OB(O)C[C@H]2C1=C(COc1ccccc1)Cn1c(=O)n(-c3ccccc3)c(=O)n12 :: bucket 2

====

Assay: viability profiling in MM1S myeloma cells – cell-based, resazurin fluorescence, basal, 24 h, PK04 Diversity Set, profiling panel (AID 1174);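 note: MM1S multiple myeloma cell line; test concentration not given here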
Settings: higher = more signal, called active from +8 up or from −8 down
measure: z-score

1) CN(C)CCCCNC(=O)[C@H]1C[C@H]2C(=O)N[C@@H](CCCC[N+](C)(C)C)C(=O)N2[C@H]1c1cccc(OCCO)c1 :: 0.505
2) COC(=O)[C@@]1(Cc2ccccc2N=[N+]=[N-])N=C(c2ccc(OCCCO)cc2)O[C@H]1c1ccccc1 :: -7.63
3) COc1cc(NN2C(C(O)c3ccc(I)cc3)C=CC3C(=O)N(C)C(=O)C32)cc(OC)c1OC (configuration not stated) :: -0.297
4) C=C(/C(=C/C[C@@H](OC(=O)c1ccncc1)c1ccccc1OCCO)c1cnc2ccccc2c1)C(C)C :: -0.807
5) C=CCOC(=O)[C@H]1[C@@H]2C(=O)O[C@@H](c3ccccc3)[C@@H](c3ccccc3)N2[C@@H](c2ccc(OCCOC(=O)[C@H]3C[C@H]4C(=O)N[C@@H](CCCCN(C)C)C(=O)N4[C@H]3c3ccc(O)cc3)cc2)[C@]12C(=O)Nc1ccccc12 :: 0.95
6) COCCCNC(=O)[C@@]1(Cc2ccccc2I)c2ccccc2C(=O)N(Cc2ccccc2Cl)[C@H]1c1ccc(CO)cc1 :: 1.59
7) CN(C)C(=O)[C@@]1(CCC(=O)OC(C)(C)C)N=C(c2ccc(OCCCO)cc2)O[C@H]1c1ccccc1N=[N+]=[N-] :: -1.36

====

Assay: binders from COS7 lysate, DM2A8 probe, primary screen, torsin A project, cell lysate, small-molecule microarray, fluorescence 635/667 (AID 1065)
Conditions: higher = more signal, COS7 lysate expressing mutant human TOR1A
# composite z-score per record follows
measure: composite z-score

1. C=C(COC)/C(=C/C[C@@H](OC(=O)c1ccncc1)c1cccc(OCCO)c1)c1cc(C(=O)OC)ccc1OC :: 0.525
2. CCCNC(=O)[C@@]1(Sc2ccc(C)cc2)CC(=O)N(Cc2ccccc2)[C@@H]1c1ccc(CO)cc1I :: -0.0477
3. C[C@@]1([C@@H](NC(=O)c2cccs2)c2ccc(-c3ccccc3)cc2)C[C@H]1C1CCCCC1 :: -1.29
4. CCCC[C@@H](O)C1=C(COc2ccccc2)Cn2c(=O)n(-c3ccccc3)c(=O)n2[C@H]1CO :: -0.0302

====

# composite z-score per record follows
System: Sam68 (KHDRBS1)
Assay: compounds binding KHDRBS1 protein – biochemical, small-molecule microarray, 635 nm fluorescence, primary screen (AID 1125);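 note: score merges 667 nm channel intensity with signal to noise over triplicate slides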
Conditions: higher = more signal
measure: composite z-score

1. COCCOC(=O)N1C(=O)[C@@]2(c3cc(C#Cc4ccc(OC)cc4)ccc31)[C@H](C(=O)N1CCc3cc(OC)c(OC)cc3C1)[C@H]1C(=O)O[C@H](c3ccccc3)[C@H](c3ccccc3)N1[C@@H]2c1ccc(O)cc1 :: 1.28
2. COCCCNC(=O)[C@@]1(Cc2ccccc2CN=[N+]=[N-])N=C(c2ccc(OCCCO)cc2)O[C@H]1c1ccccc1N=[N+]=[N-] :: 1.02
3. CCN(CC)c1ccc(N2CC=CC34O[C@@H]5/C=C\CCCOC(=O)C5[C@H]3C(=O)N(CCCCCCO)[C@@H]4C2=O)cc1 (stereo partly drawn) :: -0.32

====

Target: Calmodulin-1 (Homo sapiens) (UniProt P0DP23)
Test: small molecules binding Ca-loaded calmodulin-1 – biochemical, small-molecule microarray, Cy5-labelled CALM1, plus calcium, artefact control for SMM control-protein annotation, profiling panel (AID 1112);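 note: score merges spot fluorescence with signal to noise from triplicate slides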
Details: Cy5-CALM1 binding fluorescence, higher = more signal
# composite z-score per record follows
measure: composite z-score

1) CCOC(=O)C1=CC[C@@H](c2ccccc2)N(S(=O)(=O)c2ccc(C)cc2)[C@H]1C=C(C)C :: -0.0374
2) COCC1=C([C@H](O)CCc2ccccc2)[C@H](CO)[C@@H]2C(=O)N(C)C(=O)[C@@H]2C1 :: -0.783
3) [N-]=[N+]=Nc1ccccc1C[C@]1(C(=O)NCCN2CCOCC2)N=C(c2ccc(OCCCO)cc2)O[C@H]1c1ccccc1N=[N+]=[N-] :: -0.198
4) CC(C)CCC[C@@H](C)[C@H]1CC[C@@]2(C)C3=C(CC[C@]12C)[C@@]1(C)CC[C@H](OC(=O)c2ccc(N)cc2)C(C)(C)C1CC3 (some centres undefined) :: -0.674
5) C=CCNC(=O)[C@H]1[C@@H]2C(=O)O[C@@H](c3ccccc3)[C@@H](c3ccccc3)N2[C@@H](c2ccc(OCCO)cc2)[C@]12C(=O)N(C(=O)OCCOC)c1ccc(C#CC3=CCCCC3)cc12 :: 0.171
6) CC(C)CCC[C@@H](C)[C@H]1CC[C@@]2(C)C3=C(CC[C@]12C)[C@@]1(C)CC[C@H](OC(=O)C(C)(C)C)C(C)(C)C1CC3 (some centres undefined) :: -0.718
7) O=C1OCCC=C[C@H]2OC34C=CCN(Cn5nnc6ccccc65)C(=O)[C@H]3N(CCCCCO)C(=O)[C@@H]4C12 (some centres undefined) :: 0.106
8) COc1ccc(C(=O)Nc2ccc(CN3C(=O)[C@]4(O[C@H](CCn5cc([C@H](O)c6ccccc6)nn5)[C@@H]([Si](C)(C)c5ccc(OC)cc5)[C@@H]4C)c4ccccc43)cc2)cc1 :: 0.187
9) CC(C)(C)OC(=O)CC[C@@]1(C(=O)N2CCCCC2)N=C(c2ccc(OCCCO)cc2)O[C@@H]1c1ccccc1CN=[N+]=[N-] :: 0.709
10) OCc1ccc(-c2cc[n+](Cc3cccc(OC(F)(F)F)c3)cc2)cc1 :: -0.196
11) NCCCCCCNC(=O)[C@H]1C[C@H]2C(=O)N3CCC[C@H]3C(=O)N2[C@H]1c1ccc(O)cc1 :: 0.102
12) COC(=O)[C@@]1(Cc2ccccc2)[C@H]2c3cc(C(=O)N4CCCC4)n(Cc4ccccc4)c3C[C@H]2CN1C(=O)c1ccccc1 :: 0.168
13) COC(=O)[C@]1(Cc2ccccc2N=[N+]=[N-])N=C(c2ccc(OCCCO)cc2)O[C@@H]1c1ccccc1 :: 0.41
14) CCOC(=O)C[C@H]1[C@H](OC(=O)c2cc3ccccc3oc2=O)[C@@H](NC(=O)c2ccc3ccccc3n2)c2cc(OCCCO)ccc2N1C(=O)c1ccc2ccccc2n1 :: -0.36
